System: VDCC
assay method text: VDCC inhibition: calcium entry (Fluo-4 fluorescence) after depolarization with 60 mM KCl in SH-SY5Y neuroblastoma cells
Assay type: cell-based, human
condition notes: compound at 10^−5, 10 min exposure
Hi there, I'd appreciate the recorded % of calcium entry inhibition for every entry that follows.
Give bare numbers, in %.

Example compounds with recorded % of calcium entry inhibition:
compound	% of calcium entry inhibition / %
CCCCCOc1cc(OC)ccc1C(=O)NCCCCCCNC(=O)c1ccc(OC)cc1OCCCCC	27
COc1ccc(C(=O)NCCCCCCNC(=O)c2ccc(OC)cc2OC)c(OC)c1	38
COc1cc(OC)c(C(=O)NCCCCCNC(=O)c2ccc(OC)c(C)c2OC)cc1OC	27
CCCCOc1cc(OC)ccc1C(=O)NCCCOc1ccc(CCNC(=O)c2ccc(OC)cc2OCCCC)cc1	37
COCCOc1cc(OC)ccc1C(=O)NCCCOc1ccc(CCNC(=O)c2ccc(OC)cc2OCCOC)cc1	79

Could you tell me % of calcium entry inhibition for each of these compounds? They are listed below.
1. COCOc1cc(OC)ccc1C(=O)NCCCCCNC(=O)c1ccc(OC)cc1OCOC
2. COc1cc(O)c(C(=O)NCCCCCNC(=O)c2cc(Br)c(OC)c(Br)c2O)cc1Br

Reply |
[57.8, 96.6]

Please go through the list and note % of calcium entry inhibition for each compound.
1. COc1ccc(C(=O)NCCCOc2ccc(CCNC(=O)c3ccc(OC)cc3OCC(C)C)cc2)c(OCC(C)C)c1
2. CCOC(=O)COc1cc(OC)ccc1C(=O)NCCCOc1ccc(CCNC(=O)c2ccc(OC)cc2OCC(=O)OCC)cc1
3. CCC(C)Oc1cc(OC)ccc1C(=O)NCCCCCCNC(=O)c1ccc(OC)cc1OC(C)CC (centres unmarked)

Reply |
39
57
91

Given item COc1c(Br)cc(C(=O)NCCCCCNC(=O)c2cc(Br)c(OC)c(Br)c2O)c(O)c1Br , the value recorded as its % of calcium entry inhibition is 90.7
